Reported melting point by item:

Recorded melting point, per entry:
[[record]]
input_smiles = "CCCCc1nc(SC)c(C(=O)OCC)n1Cc1ccc(-c2ccc(S(=O)(=O)NC#N)cc2)cc1"
reported_result = "244 °C (dec.)"

[[record]]
input_smiles = "CCCCc1nc(Cl)c(C=O)n1Cc1ccc(-c2ccccc2S(=O)(=O)NC#N)cc1"
reported_result = "135 °C (dec.)"

[[record]]
input_smiles = "CCCCc1nc(SC)c(C(=O)OCC)n1Cc1cccc(-c2ccc(S(=O)(=O)NC#N)cc2C(F)(F)F)c1"
reported_result = "122 °C (dec.)"

[[record]]
input_smiles = "CCCCc1nc(SC)c(C(=O)OCC)n1Cc1ccc(-c2ccccc2S(=O)(=O)NC#N)cc1"
reported_result = "111 °C (dec.)"

[[record]]
input_smiles = "CCOC(=O)c1c(SC)nc(CC)n1Cc1ccc(-c2ccccc2S(=O)(=O)NC#N)cc1"
reported_result = "94 °C (dec.)"

[[record]]
input_smiles = "CCCCc1nc(SC)c(C(=O)OCC)n1Cc1cccc(-c2ccc(S(=O)(=O)NC#N)cc2)c1"
reported_result = "120 °C (dec.)"


melting point for "CCCCc1nc(SC)c(C(=O)OCC)n1Cc1ccc(-c2cc(S(=O)(=O)NC#N)ccc2C)cc1" ?
127 °C (dec.)

Same thing, different compound: "CCCCc1nc(SC)c(C(=O)OCC)n1Cc1ccc(-c2ccc(S(=O)(=O)NC#N)cc2C)cc1"
211 °C

Same thing, different compound: "CCCc1nc(SC)c(C(=O)OCC)n1Cc1ccc(-c2ccccc2S(=O)(=O)NC#N)cc1"
165 °C (dec.)

Same thing, different compound: "CCCCc1nc(SC)c(C(=O)OCC)n1Cc1cccc(-c2ccc(S(=O)(=O)NC#N)cc2C)c1"
115 °C (dec.)

Same thing, different compound: "CCCCc1ncc(C(=O)OCC)n1Cc1ccc(-c2ccccc2S(=O)(=O)NC#N)cc1"
121 °C (dec.)

Same thing, different compound: "CCCCc1nc(SC)c(C(=O)OCC)n1Cc1cccc(-c2ccccc2S(=O)(=O)NC#N)c1"
118 °C (dec.)

Same thing, different compound: "CCCCc1nc(SC)c(C(=O)OCC)n1Cc1ccccc1-c1cccc(S(=O)(=O)NC#N)c1"
108 °C (dec.)

Same thing, different compound: "CCOC(=O)c1c(SC)nc(C)n1Cc1ccc(-c2ccccc2S(=O)(=O)NC#N)cc1"
169 °C (dec.)

Same thing, different compound: "CCCCc1nc(SC)c(C(=O)OCC)n1Cc1ccccc1-c1ccc(S(=O)(=O)NC#N)cc1"
116 °C (dec.)

Same thing, different compound: "CCCCc1nc(SC)c(C(=O)OCC)n1Cc1cccc(-c2cc(S(=O)(=O)NC#N)ccc2C)c1"
160 °C (dec.)

----------
Reported melting point by item:

Recorded melting point, per entry:
[[record]]
input_smiles = "CCCCc1nc(SC)c(C(=O)OCC)n1Cc1ccccc1-c1ccccc1S(=O)(=O)NC#N"
reported_result = "105 °C (dec.)"

[[record]]
input_smiles = "CCCCc1nc(OC)c(C#N)n1Cc1ccc(-c2ccccc2S(=O)(=O)NC#N)cc1"
reported_result = "160 °C (dec.)"

[[record]]
input_smiles = "N#CNS(=O)(=O)c1ccccc1-c1ccc(Cn2c(-c3ccc(Cl)cc3)nc(Cl)c2C=O)cc1"
reported_result = "160 to 187 °C"


melting point for "N#CNS(=O)(=O)c1ccccc1-c1ccc(Cn2c(-c3c(F)cccc3F)nc(Cl)c2C=O)cc1" ?
164 to 178 °C

Same thing, different compound: "CCOC(=O)c1c(SC)nc(C2CC2)n1Cc1ccc(-c2ccccc2S(=O)(=O)NC#N)cc1"
> 260 °C

Same thing, different compound: "CCOC(=O)c1c(SC)nc(C(C)C)n1Cc1ccc(-c2ccccc2S(=O)(=O)NC#N)cc1"
276 °C (dec.)

Same thing, different compound: "CCCCc1nc(SC)c(C(=O)OC(C)C)n1Cc1ccc(-c2ccccc2S(=O)(=O)NC#N)cc1"
113 °C (dec.)

Same thing, different compound: "COc1ccc(-c2nc(Cl)c(C=O)n2Cc2ccc(-c3ccccc3S(=O)(=O)NC#N)cc2)cc1"
110 to 126 °C

Same thing, different compound: "CCCCc1nc(SC)c(C(=O)OCC)n1Cc1cccc(-c2cccc(S(=O)(=O)NC#N)c2)c1"
112 °C (dec.)

----------
tested on: Na+-dependent Cl−/HCO3− exchanger (NCBE); assay: Inhibition of the Na+-dependent Cl−/HCO3− exchanger (NCBE) in human endothelial cells (pHi recovery, BCECF fluorescence, FLIPR); format: cell-based; conditions: inhibitor concentration of 10 μM; human endothelial cells (ECV-304); relative to 100% and 0% pHi recovery controls, 50 μM HOE 642 present
Reported Residual activity in % (residual activity of the NCBE) by item:
Just the number in %, nothing appended.

Recorded Residual activity in % (residual activity of the NCBE), per entry:
[[record]]
input_smiles = "CCCCc1nc(SC)c(C(=O)OCC)n1Cc1cccc(-c2cc(S(=O)(=O)NC#N)ccc2C)c1"
reported_result = 29.2

[[record]]
input_smiles = "CCOC(=O)c1c(SC)nc(CC)n1Cc1ccc(-c2ccccc2S(=O)(=O)NC#N)cc1"
reported_result = 39.1

[[record]]
input_smiles = "CCCCc1nc(SC)c(C(=O)OCC)n1Cc1ccccc1-c1ccc(S(=O)(=O)NC#N)cc1"
reported_result = 31.6

[[record]]
input_smiles = "CCCCc1nc(SC)c(C(=O)OCC)n1Cc1ccc(-c2cc(S(=O)(=O)NC#N)ccc2C)cc1"
reported_result = 42.6

[[record]]
input_smiles = "N#CNS(=O)(=O)c1ccccc1-c1ccc(Cn2c(-c3c(F)cccc3F)nc(Cl)c2C=O)cc1"
reported_result = 8.6


Residual activity in % (residual activity of the NCBE) for "CC(=O)c1c(Cl)nc(-c2ccccc2)n1Cc1ccc(-c2ccccc2S(=O)(=O)NC#N)cc1" ?
39.6

Same thing, different molecule: "N#CNS(=O)(=O)c1ccccc1-c1ccc(Cn2c(-c3ccc(Cl)cc3)nc(Cl)c2C=O)cc1"
7.8

Same thing, different molecule: "N#CNS(=O)(=O)c1ccccc1-c1ccc(Cn2c(-c3ccccc3)nc(Oc3ccccc3)c2C=O)c(Cl)c1"
3.2

Same thing, different molecule: "COc1nc(-c2ccccc2)n(Cc2ccc(-c3ccccc3S(=O)(=O)NC#N)cc2)c1C=O"
20.8

Same thing, different molecule: "CCCCc1nc(OC)c(C#N)n1Cc1ccc(-c2ccccc2S(=O)(=O)NC#N)cc1"
47.3

Same thing, different molecule: "CCCCc1nc(SC)cn1Cc1ccc(-c2ccccc2S(=O)(=O)NC#N)cc1"
50.0

Same thing, different molecule: "CCCCc1nc(SC)c(C(=O)OCC)n1Cc1ccccc1-c1ccccc1S(=O)(=O)NC#N"
72.1

----------
system: Na+-dependent Cl−/HCO3− exchanger (NCBE); assay: Inhibition of the Na+-dependent Cl−/HCO3− exchanger (NCBE) in human endothelial cells (pHi recovery, BCECF fluorescence, FLIPR); type: cell-based; settings: inhibitor concentration of 10 μM; human endothelial cells (ECV-304); relative to 100% and 0% pHi recovery controls, 50 μM HOE 642 present
EXPERIMENTAL READOUT: Residual activity in % (residual activity of the NCBE) (%)
Just the number in %, nothing appended.

[[record]]
compound = "CCCc1nc(SC)c(C(=O)OCC)n1Cc1ccc(-c2ccccc2S(=O)(=O)NC#N)cc1 [Example 16]"
experimental_system = "Na+-dependent Cl−/HCO3− exchanger (NCBE)"
reported_result = 11.5

[[record]]
compound = "CCCCc1nc(SC)c(C(=O)OCC)n1Cc1ccc(-c2ccc(S(=O)(=O)NC#N)cc2C(F)(F)F)cc1 [Example 23]"
experimental_system = "Na+-dependent Cl−/HCO3− exchanger (NCBE)"
reported_result = 31.6

[[record]]
compound = "N#CNS(=O)(=O)c1ccccc1-c1ccc(Cn2c(-c3ccccc3)nc(Cl)c2C=O)cc1 [Example 11]"
experimental_system = "Na+-dependent Cl−/HCO3− exchanger (NCBE)"
reported_result = 15.0


Shifting focus to the compound that follows.
Residual activity in % (residual activity of the NCBE) for CCCCc1nc(SC)c(C(=O)OCC)n1Cc1ccccc1-c1cccc(S(=O)(=O)NC#N)c1 [Example 8] ?
60.8
